# TARGET_ENTITY: UniProtKB P51449
# Sequence (P51449 whole entry): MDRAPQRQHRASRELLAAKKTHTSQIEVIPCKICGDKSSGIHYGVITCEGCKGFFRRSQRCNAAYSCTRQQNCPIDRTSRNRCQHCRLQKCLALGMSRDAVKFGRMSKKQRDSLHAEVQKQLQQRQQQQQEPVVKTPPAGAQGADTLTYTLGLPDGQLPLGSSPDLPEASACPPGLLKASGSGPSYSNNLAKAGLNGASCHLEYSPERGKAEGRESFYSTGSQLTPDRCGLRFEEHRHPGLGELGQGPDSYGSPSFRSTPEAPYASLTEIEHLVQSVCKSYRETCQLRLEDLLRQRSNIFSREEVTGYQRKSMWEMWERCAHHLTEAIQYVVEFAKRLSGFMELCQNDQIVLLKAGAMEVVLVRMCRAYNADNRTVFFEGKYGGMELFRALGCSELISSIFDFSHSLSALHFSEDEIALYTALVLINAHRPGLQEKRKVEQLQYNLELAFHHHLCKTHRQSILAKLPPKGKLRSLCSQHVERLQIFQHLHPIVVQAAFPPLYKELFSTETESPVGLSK
# TEST_METHOD_NOTES: Displacement of [3H]-Digoxin from recombinant human GST-fused RORgammat LBD after 1 to 4 hrs by scintillation counting method
RESULT_TYPE: IC50

In the examples that follow, each entry is paired with its recorded IC50.
CCS(=O)(=O)c1ccc(CC(=O)Nc2ccc(C(C)(C)C(=O)N(C)c3ccccc3)cc2)cc1    < 30 nM
CCS(=O)(=O)c1ccc(CC(=O)Nc2ccc(C(C)(C)C(=O)Nc3ccc(F)cc3)c(F)c2)cc1    < 30 nM
CCS(=O)(=O)c1ccc(CC(=O)Nc2ccc(C(C)(C)C(=O)N(C)C)cc2)cc1    30 nM
CCS(=O)(=O)c1ccc(CC(=O)Nc2ccc(C(C)(C)C(=O)Nc3ccc(F)cc3)cc2)cc1    < 30 nM

Task: Given the molecule `CCS(=O)(=O)c1ccc(CC(=O)Nc2ccc(C(C)(C)C(=O)Nc3ccc(F)cc3F)c(F)c2)cc1` , what is its reported IC50?
Result: < 30 nM

Task: Given the molecule `CCS(=O)(=O)c1ccc(CC(=O)Nc2ccc(C(C)(C)C(=O)N3CCC3)cc2)cc1` , what is its reported IC50?
Result: < 30 nM

Task: Given the molecule `CCS(=O)(=O)c1ccc(CC(=O)Nc2ccc(C(C)(C)C(=O)N3CC4(CCC4)C3)cc2)cc1` , what is its reported IC50?
Result: 33 nM

Task: Given the molecule `CCS(=O)(=O)c1ccc(CC(=O)Nc2ccc(C(C)(C)C(=O)N3CCCCC3)cc2)cc1` , what is its reported IC50?
Result: 36 nM

Task: Given the molecule `CCS(=O)(=O)c1ccc(CC(=O)Nc2ccc(C(C)(C)C(=O)Nc3cc(C#N)ccn3)c(F)c2)cc1` , what is its reported IC50?
Result: < 30 nM
